Molecular target: 5-HT1A receptor (UniProt P19327)
Sequence (P19327 1-422): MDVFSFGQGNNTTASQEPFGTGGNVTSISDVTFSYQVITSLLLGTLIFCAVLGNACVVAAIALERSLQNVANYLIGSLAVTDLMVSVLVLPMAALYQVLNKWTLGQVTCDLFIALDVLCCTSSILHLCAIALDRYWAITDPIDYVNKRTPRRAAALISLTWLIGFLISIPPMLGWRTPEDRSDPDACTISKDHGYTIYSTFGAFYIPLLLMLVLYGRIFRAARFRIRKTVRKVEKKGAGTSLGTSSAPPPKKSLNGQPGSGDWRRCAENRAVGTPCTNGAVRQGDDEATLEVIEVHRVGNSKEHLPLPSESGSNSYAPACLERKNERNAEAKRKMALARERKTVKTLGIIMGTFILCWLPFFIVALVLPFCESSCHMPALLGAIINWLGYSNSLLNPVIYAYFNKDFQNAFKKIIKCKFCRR
pIC50: −log10 of the molar value.
MEASUREMENT LABEL: pIC50

> print(dat)
                           structure.string  measurement.label  measured
1  O[C@@H]1C[C@H](CNCc2cncc(-c3ccc(F)cc3)c2)Oc2ccccc21              pIC50      8.00
